Reference for the values: PubChem BioAssay (EPA / NIEHS)

assay: CCTE_Harrill_HTTr_Viability_MCF7: CCTE's 6-hour Cell Viability Assessment for the High-Throughput Transcriptomics (HTTr) Platform, in MCF-7 cells cultured in DMEM + 10% fetal bovine serum, Harrill Lab (AID 2284010)
The source made the active and inactive calls. How the source made its calls: active means hit-call score of the fitted dose curve at least 0.9, where 1 is the maximum; inactive means score below 0.9.
property.name: outcome

Worked cases, answers included:
>>> value_measured("Cc1ccc(C(C)(C)C)c(O)c1")
"inactive"
>>> value_measured("CCCCCCCC(=O)OC")
"inactive"
>>> value_measured("CCc1cc(C2=C(C(=O)O)N(c3ccccc3C(F)(F)F)S(=O)(=O)c3ccccc32)cc2c1OCO2")
"inactive"
>>> value_measured("CCCCC(CC)COC(=O)CCCCCCCC(=O)OCC(CC)CCCC (centres undefined)")
"inactive"
>>> value_measured("COc1ccc(OC(F)(F)F)cc1CN[C@H]1CCCN[C@H]1c1ccccc1")
"inactive"

I'm hoping you can list outcome for every compound here, please.
1. CCCCCCC(C=O)=Cc1ccccc1
2. Cc1cc(Cc2ccc(N)c(C)c2)ccc1N
3. OCC(CO)n1cnc(-c2ccc(F)cc2)c1-c1ccnc(Oc2ccccc2)n1
4. CC(C)NCC(O)c1ccc(O)c(O)c1 (centres undefined)
5. S=c1[nH]c2ccccc2s1
6. OCC(O)CO

-- reply
1. inactive
2. inactive
3. inactive
4. inactive
5. inactive
6. inactive

I'm hoping you can list outcome for every compound here, please.
1. CC(C)COC(=O)CCCCC(=O)OCC(C)C
2. Cn1cnc2c1c(=O)[nH]c(=O)n2C
3. O=C1NC(=O)C(c2ccccc2)(c2ccccc2)N1
4. CC(COCC(C)OC(=O)c1ccccc1)OC(=O)c1ccccc1 (centres undefined)
5. Cc1ccc(-c2cc(C(F)(F)F)nn2-c2ccc(S(N)(=O)=O)cc2)cc1
6. CC(=O)CC(c1ccccc1)c1c(O)c2ccccc2oc1=O (centres undefined)
7. CN(C)CCCN(C)CCCN(C)C

-- reply
1. inactive
2. inactive
3. inactive
4. inactive
5. inactive
6. inactive
7. inactive

* * *

test: ATG_PBREM_CIS: Attagene CIS-FACTORIAL HepG2 Assay for human Phenobarbital-responsive Enhancer Module (PBREM) (AID 2282955); details: HepG2 PBREM cis-reporter, Attagene multiplexed transcription; actives raise or lower the signal
Calls of active or inactive are those of the source. How the source made its calls: active means hit-call score of the fitted dose curve at least 0.9, where 1 is the maximum; inactive means score below 0.9.
Give your call using only these classes: active, inactive

Completed entries (count: 5):
>>> discrete_label("C#CC(O)C(CC)CCCC (configuration not stated)")
"inactive"
>>> discrete_label("Cc1ccc(C(C)(C)C)c(O)c1")
"active"
>>> discrete_label("CC1=C(C)S(=O)(=O)CCS1(=O)=O")
"inactive"
>>> discrete_label("O=C1CCCCC1")
"inactive"
>>> discrete_label("CCc1cc(C2=C(C(=O)O)N(c3ccccc3C(F)(F)F)S(=O)(=O)c3ccccc32)cc2c1OCO2")
"active"

-- ask Hello, I am checking results. What call was entered for `CC(C)OC(=O)C(C)(C)Oc1ccc(C(=O)c2ccc(Cl)cc2)cc1` ?
-- reply inactive

-- ask Hello, I am checking results. What call was entered for `O=C(O)CN(CC(=O)O)CC(=O)O` ?
-- reply inactive

* * *

Assay: BSK_SAg_SRB: Viability Assessment in the BioMAP Diversity Plus: SAg Assay (AID 2283096);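 further: cells read one day after compound addition; hits may be either gain or loss of signal compared with DMSO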
Details: primary human HUVEC with PBMC
Protocol: BSK_SAg is a cell-based, multiplexed-readout assay that uses umbilical vein endothelium and peripheral blood mononuclear cells, a human vascular primary cell co-culture, with measurements taken at 24 hours after chemical dosing in a 96-well plate.BSK_SAg_SRB is an assay component measured in the BSK_SAg assay. […] This assay endpoint, BSK_SAg_SRB, was analyzed with bidirectional fitting relative to DMSO as the negative control and baseline of activity. […]
Active and inactive are the calls of the source. The calls were made as follows: active = hit-call score of the fitted dose curve at least 0.9, where 1 is the maximum; inactive = score below 0.9.
property.name: AC50

>>> value_measured("CN(C)CCCN(C)CCCN(C)C")
"inactive"
>>> value_measured("Nc1nc(Cl)nc2c1ncn2[C@H]1C[C@H](O)[C@@H](CO)O1")
"0.554 µM (active)"
>>> value_measured("Cc1c(C)c2c(c(C)c1O)CCC(C)(COc1ccc(CC3SC(=O)NC3=O)cc1)O2 (configuration not stated)")
"23.7 µM (active)"
>>> value_measured("CC(C)COC(=O)CCCCC(=O)OCC(C)C")
"inactive"
>>> value_measured("CN(C)C(=O)NC1(c2ccccc2)CCN(CC[C@@]2(c3ccc(F)c(F)c3)CN(C(=O)c3ccccc3)CCO2)CC1")
"inactive"

I'm hoping you can list AC50 for every molecule here, please.
1. COc1ccc(C(=O)Nc2nc3ccccc3c(NCc3ccccc3)c2C#N)cc1
2. CCc1nc(N)nc(N)c1-c1ccc(Cl)cc1
3. O=NO
4. Nc1nc(=S)c2[nH]cnc2[nH]1
5. Cc1occc(=O)c1O
6. CCCCCCCCCCCCCCCCO
7. OCC(O)CO
8. CCCCC(CC)CO (configuration not stated)

-- reply
1: inactive; 2: inactive; 3: inactive; 4: inactive; 5: inactive; 6: inactive; 7: inactive; 8: inactive

I'm hoping you can list AC50 for every molecule here, please.
1. Oc1ccccc1O
2. CC1=C(C)S(=O)(=O)CCS1(=O)=O
3. Cc1cc(Cc2ccc(N)c(C)c2)ccc1N
4. N[C@@H](Cc1c[nH]c2ccccc12)C(=O)O
5. CC(COCC(C)OC(=O)c1ccccc1)OC(=O)c1ccccc1 (configuration not stated)
6. CCN(CC)CCOc1ccc(C(=C(Cl)c2ccccc2)c2ccccc2)cc1
7. CCCCC(CC)COC(=O)CCCCCCCC(=O)OCC(CC)CCCC (configuration not stated)

-- reply
8.32 µM (active)
inactive
inactive
inactive
inactive
11.1 µM (active)
inactive

I'm hoping you can list AC50 for every molecule here, please.
1. CC(=O)S[C@H](C(=O)N[C@H]1Cc2ccccc2[C@H]2CCC[C@@H](C(=O)O)N2C1=O)C(C)C
2. C/C=C/C=C/C(=O)O
3. CCCC[C@H]1CN(CC2CCOCC2)C(=O)OC12CCN(C1(C)CCN(C(=O)c3c(C)ncnc3C)CC1)CC2
4. C/C=C/c1ccc(OC)cc1

-- reply
1. inactive
2. inactive
3. inactive
4. inactive

* * *

assay: APR_HepG2_MicrotubuleCSK_24hr: Apredica 24-hour HepG2 Assay for Microtubule CSK Stabilty (AID 2282909); conditions: HepG2 microtubule cytoskeleton imaging, actives raise or lower the signal
Active and inactive are the calls of the source. The calls were made as follows: active = hit-call score of the fitted dose curve at least 0.9, where 1 is the maximum; inactive = score below 0.9.
Give your call using only these classes: label 1 (active), label 0 (inactive)

-- ask Hello, I am checking results. What call was entered for `CCN(CC)CCOc1ccc(C(=C(Cl)c2ccccc2)c2ccccc2)cc1` ?
-- reply label 1

-- ask Hello, I am checking results. What call was entered for `Cc1cc(SC2=C(O)C[C@@](CCc3ccc(N)cc3)(C(C)C)OC2=O)c(C(C)(C)C)cc1CO` ?
-- reply label 0

-- ask Hello, I am checking results. What call was entered for `CCCCCCCC(=O)OC` ?
-- reply label 0

-- ask Hello, I am checking results. What call was entered for `CN(C)CCCN(C)CCCN(C)C` ?
-- reply label 0

-- ask Hello, I am checking results. What call was entered for `O=C(NS(=O)(=O)/C=C/c1cccs1)c1ccc(F)cc1Br` ?
-- reply label 0

-- ask Hello, I am checking results. What call was entered for CCCCC(CC)COC(=O)CCCCCCCC(=O)OCC(CC)CCCC (stereo unspecified) ?
-- reply label 0

* * *

test system: guinea pig Histamine Receptor (H2), gene 100729734; test: NVS_GPCR_gH2: NovaScreen (NVS) G Protein-Coupled Receptor Assay for guinea pig Histamine Receptor (H2) (AID 2283342)
Records with an inconclusive call do not appear. Calls of active or inactive are those of the source. The calls were made as follows: active = hit-call score of the fitted dose curve at least 0.9, where 1 is the maximum; inconclusive = response in the unintended direction; inactive = score below 0.9.
Give your call using only these classes: active, inactive

>>> discrete_label("CC(C)NCC(O)c1ccc(O)c(O)c1 (stereo not drawn)")
"inactive"
>>> discrete_label("CCCCCCCCCC[N+](C)(C)[O-]")
"inactive"

Now, please, on to the next compound.
-- ask Hello, I am checking results. What call was entered for `COc1ccc(OC(F)(F)F)cc1CN[C@H]1CCCN[C@H]1c1ccccc1` ?
-- reply active

* * *

biological target: Voltage-gated inwardly rectifying potassium channel KCNH2 (Homo sapiens) (UniProt Q12809); test: NVS_IC_hKhERGCh: NovaScreen (NVS) Ion Channel Assay for human Potassium Channel ERG (KhERGCh) (AID 2283333)
Sequence (Q12809 whole entry, looked up): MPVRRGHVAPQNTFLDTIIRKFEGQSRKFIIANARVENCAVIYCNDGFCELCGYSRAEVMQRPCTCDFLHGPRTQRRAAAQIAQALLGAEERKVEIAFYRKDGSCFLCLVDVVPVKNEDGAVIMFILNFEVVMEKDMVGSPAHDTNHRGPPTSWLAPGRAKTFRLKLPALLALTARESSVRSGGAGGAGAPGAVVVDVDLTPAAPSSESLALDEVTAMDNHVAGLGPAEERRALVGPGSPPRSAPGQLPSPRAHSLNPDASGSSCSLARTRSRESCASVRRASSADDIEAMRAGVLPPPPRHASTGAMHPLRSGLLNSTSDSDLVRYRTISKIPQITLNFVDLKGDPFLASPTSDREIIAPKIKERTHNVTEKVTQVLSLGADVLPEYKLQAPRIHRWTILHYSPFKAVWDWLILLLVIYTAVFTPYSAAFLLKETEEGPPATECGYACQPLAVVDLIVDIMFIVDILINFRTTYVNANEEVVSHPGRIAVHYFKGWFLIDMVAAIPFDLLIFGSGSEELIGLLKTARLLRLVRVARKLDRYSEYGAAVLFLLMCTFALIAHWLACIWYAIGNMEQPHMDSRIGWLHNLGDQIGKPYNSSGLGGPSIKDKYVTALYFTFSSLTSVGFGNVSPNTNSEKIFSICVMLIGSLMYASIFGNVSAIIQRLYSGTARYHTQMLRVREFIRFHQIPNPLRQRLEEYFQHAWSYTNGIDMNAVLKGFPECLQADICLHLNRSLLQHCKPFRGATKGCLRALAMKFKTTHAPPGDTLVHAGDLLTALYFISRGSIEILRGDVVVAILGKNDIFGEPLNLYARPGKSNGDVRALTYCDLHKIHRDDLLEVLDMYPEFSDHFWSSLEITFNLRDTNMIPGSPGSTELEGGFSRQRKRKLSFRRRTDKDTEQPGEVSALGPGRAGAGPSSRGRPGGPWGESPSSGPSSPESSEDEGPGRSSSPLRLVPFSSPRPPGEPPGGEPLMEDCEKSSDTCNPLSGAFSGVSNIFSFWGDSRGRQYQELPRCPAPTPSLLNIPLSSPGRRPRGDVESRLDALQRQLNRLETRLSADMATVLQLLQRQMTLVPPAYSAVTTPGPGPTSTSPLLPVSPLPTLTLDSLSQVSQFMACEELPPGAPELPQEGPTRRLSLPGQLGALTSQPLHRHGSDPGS
Records with an inconclusive call do not appear. Calls of active or inactive are those of the source. The calls were made as follows: active = hit-call score of the fitted dose curve at least 0.9, where 1 is the maximum; inconclusive = response in the unintended direction; inactive = score below 0.9.
Give your call using only these classes: active, inactive

Completed entries (count: 4):
>>> discrete_label("O=C(N[C@@H](c1ccccc1)[C@@H]1CCCCN1)c1cccc(C(F)(F)F)c1Cl")
"active"
>>> discrete_label("CSc1ccc(Oc2ccc(S(N)(=O)=O)cc2CN(C)C)cc1C")
"inactive"
>>> discrete_label("CN(C)C(=O)NC1(c2ccccc2)CCN(CCC[C@]2(c3ccc(Cl)c(Cl)c3)CCCN(C(=O)c3ccccc3)C2)CC1")
"active"
>>> discrete_label("O=C(O)c1[nH]n(-c2ccc(S(=O)(=O)O)cc2)c(=O)c1N=Nc1ccc(S(=O)(=O)O)cc1")
"inactive"

Now, please, on to the next compound.
-- ask Hello, I am checking results. What call was entered for `Cn1cnc2c1c(=O)[nH]c(=O)n2C` ?
-- reply inactive
